Assay: Example 2, second clinical study: pharmacokinetics, bioavailability, food and rabeprazole effect
Assay type: in vivo, human
Conditions: human, in vivo, po, 20 mg, 20 mg film-coated tablet, fasted, vs IV infusion; read-out: absolute bioavailability based on AUClast
readoutType: bioavailability

Look up bioavailability: Cc1cc(-c2nccc3c2ccn3CC(=O)Nc2ccc(-c3cnccn3)cn2)ccn1 [AZD5055]
~64%

###

Assay: oral bioavailability in several animal species
Settings: in vivo, read-out: observed oral bioavailability
readoutType: bioavailability

Return reported bioavailability; argument: "Cc1cc(-c2nccc3c2ccn3CC(=O)Nc2ccc(-c3cnccn3)cn2)ccn1"
40 to 60%

###

Assay: Example 1, first clinical study: pharmacokinetics in healthy subjects
Assay type: in vivo, human
Details: human, in vivo, po, single administration; read-out: geometric mean terminal half-life
readoutType: half-life

Given the compound Cc1cc(-c2nccc3c2ccn3CC(=O)Nc2ccc(-c3cnccn3)cn2)ccn1 [AZD5055] , what is its reported half-life?
582 to 684 min

###

Assay: Example 2, second clinical study: pharmacokinetics, bioavailability, food and rabeprazole effect
Format: in vivo, human
Settings: human, in vivo, po, 20 mg, 20 mg film-coated tablet, fasted, vs IV infusion; read-out: absolute bioavailability based on AUCinf
readoutType: bioavailability

Request the reported bioavailability associated with "Cc1cc(-c2nccc3c2ccn3CC(=O)Nc2ccc(-c3cnccn3)cn2)ccn1"
~66%
